test system: S. pneumoniae MMX 3031 cMefA; experiment: MIC (broth microdilution or agar dilution, CLSI); format: cell-based; conditions: Streptococcus pneumoniae, MMX3031CMEFA, S. pneumoniae MMX 3031 cMefA; read-out: MIC
# MIC annotations

- compound: "CSC1O[C@H]([C@H](NC(=O)[C@@H]2[C@@H]3OCC[C@@H](C4CCCC4)C[C@H]3CN2C)[C@H](C)Cl)CC(O)[C@H]1O (stereo partly drawn) [FSA-513001b]"
  readout units: "µg/mL"
  result comparator: "≤"
  MIC: 0.06
- compound: "CCC[C@@H]1C[C@@H](C(=O)N[C@@H]([C@H]2O[C@H](SC)[C@H](O)[C@@H](O)[C@H]2O)[C@H](C)Cl)N(C)C1 [Clindamycin, clindamycin, reference compound]"
  readout units: "µg/mL"
  result comparator: "="
  MIC: 0.06
- compound: "C=CC[C@@H]1CCO[C@@H]2[C@H](CN[C@@H]2C(=O)N[C@H]([C@H](C)Cl)[C@H]2OC(SC)[C@H](O)[C@H](O)C2O)C1 (stereo partly drawn)"
  readout units: "µg/mL"
  result comparator: "="
  MIC: 0.06

====

tested on: S. aureus ATCC BAA-1707 (MRSA); test: MIC (broth microdilution or agar dilution, CLSI); assay type: cell-based; conditions: Staphylococcus aureus; S. aureus HAV#016, ATCC BAA-1707; MRSA; read-out: MIC
measured property: MIC (µg/mL)

- smiles notation: "CC[C@H]1OC(=O)[C@H](C)[C@@H](O[C@H]2C[C@@](C)(OC)[C@@H](O)[C@H](C)O2)[C@H](C)[C@@H](O[C@@H]2O[C@H](C)C[C@H](N(C)C)[C@H]2O)[C@](C)(O)C[C@@H](C)C(=O)[C@H](C)[C@@H](O)[C@]1(C)O"
  measurement: 0.5
- smiles notation: "C[C@H]1c2cccc(O)c2C(=O)C2=C(O)[C@]3(O)C(=O)C(C(N)=O)=C(O)[C@@H](N(C)C)[C@@H]3[C@@H](O)[C@@H]21"
  measurement: 0.25
- smiles notation: "CC(=O)NC[C@H]1CN(c2ccc(N3CCOCC3)c(F)c2)C(=O)O1"
  measurement: 2
- smiles notation: "CC[C@H]1OC(=O)[C@H](C)[C@@H](O[C@H]2C[C@@](C)(OC)[C@@H](O)[C@H](C)O2)[C@H](C)[C@@H](O[C@@H]2O[C@H](C)C[C@H](N(C)C)[C@H]2O)[C@](C)(O)C[C@@H](C)CN(C)[C@H](C)[C@@H](O)[C@]1(C)O"
  measurement: 1
- smiles notation: "CN(C)c1ccc(O)c2c1C[C@H]1C[C@H]3[C@H](N(C)C)C(O)=C(C(N)=O)C(=O)[C@@]3(O)C(O)=C1C2=O"
  measurement: 0.25
- smiles notation: "CCC[C@@H]1C[C@@H](C(=O)N[C@@H]([C@H]2O[C@H](SC)[C@H](O)[C@@H](O)[C@H]2O)[C@@H](C)O)N(C)C1"
  measurement: 0.25
- smiles notation: "CO/N=C(\\C(=O)N[C@@H]1C(=O)N2C(C(=O)O)=C(CSc3nc(=O)c(=O)[nH]n3C)CS[C@H]12)c1csc(N)n1"
  measurement: 64

====

system: broad panel of different clinical isolates; assay: microbe, parasite or virus in culture; assay type: cell-based; conditions: Enterococcus faecalis, VRE, E. faecalis HAV#606; Clinical
# MIC annotations

- molecule: "CO/N=C(\\C(=O)N[C@@H]1C(=O)N2C(C(=O)O)=C(CSc3nc(=O)c(=O)[nH]n3C)CS[C@H]12)c1csc(N)n1 [Ceftriaxone]"
  MIC: "> 256 µg/mL"
- molecule: "CN[C@H](CC(C)C)C(=O)N[C@H]1C(=O)N[C@@H](CC(N)=O)C(=O)N[C@H]2C(=O)N[C@H]3C(=O)N[C@H](C(=O)N[C@H](C(=O)O)c4cc(O)cc(O)c4-c4cc3ccc4O)[C@H](O)c3ccc(c(Cl)c3)Oc3cc2cc(c3O[C@@H]2O[C@H](CO)[C@@H](O)[C@H](O)[C@H]2O[C@H]2C[C@](C)(N)[C@H](O)[C@H](C)O2)Oc2ccc(cc2Cl)[C@H]1O [Vancomycin]"
  MIC: "> 128 µg/mL"
- molecule: "CC[C@H]1OC(=O)[C@H](C)[C@@H](O[C@H]2C[C@@](C)(OC)[C@@H](O)[C@H](C)O2)[C@H](C)[C@@H](O[C@@H]2O[C@H](C)C[C@H](N(C)C)[C@H]2O)[C@](C)(O)C[C@@H](C)CN(C)[C@H](C)[C@@H](O)[C@]1(C)O [Azithromycin]"
  MIC: "> 128 µg/mL"
